B1: DNA topoisomerase 3-alpha, residues 812 to 851; numbered along this chain, Q13472 (parent)
chain: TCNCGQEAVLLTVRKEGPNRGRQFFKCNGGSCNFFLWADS

Variants of: B1
Test: abundance fitness (aPCA) (normalised: wild type 0, dead -1); higher = more abundant; growth selection in yeast, the domain comes from the species named
Conditions: Homo sapiens
reported metric: abundance fitness
Number only, please.

Ask | Report abundance fitness for TCNCGQEAVLLTVLKEGPNRGRQFFKCNGGSCNFFLWADS
Reply | -0.099

Ask | Report abundance fitness for TCNCGQEAVLLTVRKVGPNRGRQFFKCNGGSCNFFLWADS
Reply | -0.5

Ask | Report abundance fitness for TCNCGQEAVLLTVRKEGPNRGRQFVKCNGGSCNFFLWADS
Reply | -0.509
